- STUDY TARGET: UniProt:P11229
- Sequence (P11229 whole entry): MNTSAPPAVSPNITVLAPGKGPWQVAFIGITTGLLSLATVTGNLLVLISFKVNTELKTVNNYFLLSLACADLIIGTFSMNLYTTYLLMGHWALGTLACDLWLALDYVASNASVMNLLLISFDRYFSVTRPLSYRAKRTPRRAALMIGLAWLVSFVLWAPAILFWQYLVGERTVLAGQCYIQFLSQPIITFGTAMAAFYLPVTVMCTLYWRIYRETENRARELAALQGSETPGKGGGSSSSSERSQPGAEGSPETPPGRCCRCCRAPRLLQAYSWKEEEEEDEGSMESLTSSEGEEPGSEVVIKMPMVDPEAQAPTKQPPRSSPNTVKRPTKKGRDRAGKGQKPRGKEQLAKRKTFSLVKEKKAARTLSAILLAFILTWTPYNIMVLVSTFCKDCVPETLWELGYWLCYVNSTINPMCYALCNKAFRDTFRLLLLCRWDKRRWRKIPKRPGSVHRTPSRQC
- METHOD DESCRIPTION: mAChR M1 cell-based functional assay: calcium mobilization, positive allosteric modulator mode (increase in EC20 acetylcholine response)
- CONDITION NOTES: Table 2; human M1; read-out: Human M1 EC50
Item-by-item account of EC50
PROPERTY LABEL: EC50 (µM)

{"MOLECULE": "Cn1ncc2nc(C(=O)N[C@H]3CCC[C@@H]3O)cc(Cc3ccc(-c4cscn4)cc3)c21", "VALUE REPORTED": 1.71}
{"MOLECULE": "Cn1ccc(-c2ccc(Cc3cc(C(=O)NC4CCOCC4)nc4ccn(C)c34)cc2)n1", "VALUE REPORTED": 0.106}
{"MOLECULE": "Cc1csc2c(Cc3ccc(-n4cccn4)cc3)cc(C(=O)N[C@H]3CCOC3)nc12", "VALUE REPORTED": 1.68}
{"MOLECULE": "Cn1ccc(-c2ccc(Cc3cc(C(=O)NCC4CCOCC4)nc4ccn(C)c34)cc2)n1", "VALUE REPORTED": 0.28}
{"MOLECULE": "O=C(NC1CCCOC1)c1cc(Cc2ccc(-c3nccs3)cc2)c2sccc2n1 (stereo not shown)", "VALUE REPORTED": 1.87}
{"MOLECULE": "COCCNC(=O)c1cc(Cc2ccc(-c3nccs3)cc2)c2sccc2n1", "VALUE REPORTED": 1.42}
{"MOLECULE": "COC1CC(NC(=O)c2cc(Cc3ccc(-n4cccn4)cc3)c3sccc3n2)C1 (stereo not shown)", "VALUE REPORTED": 1.48}

Reference source: patent US11111251B2
